- EXPERIMENTAL_DETAILS: Pseudomonas biofilm growth suppression – PAO1 strain, BacTiter-Glo luminescence, LB-PBS, primary screen (AID 1144)
- PROTOCOL_CONDITIONS: P. aeruginosa PAO1 biofilm, 12 h, higher = more signal
z-score values by entry
Answer with a number only.

>>> quantitative_result("C=CCN(Cc1ccccc1)C(=O)C(c1cccs1)N(C(=O)/C=C\\C(=O)O)c1ccc(CCOCCO)cc1 (configuration not stated)")
-1.75
>>> quantitative_result("NC(=O)NCC#Cc1ccc2c(c1)[C@]1(C(=O)N2)[C@H](C(=O)O)[C@H]2C(=O)O[C@H](c3ccccc3)[C@H](c3ccccc3)N2[C@@H]1c1ccc(O)cc1")
-0.36
>>> quantitative_result("COC(=O)[C@H](Cc1ccccc1)N[C@H](/C=C/C1CC1)[C@@H](O)Cc1ccccc1")
-0.555
>>> quantitative_result("CC1CC/C=C\\[C@H]2OC34C=CCN(Cc5ccccc5)C(=O)[C@H]3N(C(C)CO)C(=O)[C@@H]4C2C(=O)O1 (some centres not stated)")
0.647
>>> quantitative_result("O=C(O)[C@H]1C[C@H]2C(=O)N3CCC[C@H]3C(=O)N2[C@H]1c1ccc(O)cc1")
-0.0598

// lookup z-score for "COC(=O)[C@@]1(Cc2ccc(OC)cc2)[C@H]2c3cc(C(=O)N4CCCC4)n(CCSCCO)c3C[C@H]2CN1C(=O)c1ccccc1" 0.58

What measured z-score goes with "COc1ccc(C(=O)Nc2cccc(CN3C(=O)[C@]4(O[C@H](CCn5cc(CCO)nn5)[C@@H]([Si](C)(C)c5ccc(OC)cc5)[C@@H]4C)c4ccccc43)c2)cc1" ? -0.0511

====

- EXPERIMENTAL_DETAILS: probe aLefty2 binding to arrayed compounds – biochemical, biotinylated probe, 635/667 nm fluorescence, primary screen (AID 1094);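 note: score merges spot fluorescence near 667 nm with spot signal-to-noise ratio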
- PROTOCOL_CONDITIONS: small-molecule microarray, higher = more signal
METRIC: composite z-score
Hey, just send me the number, nothing else.

>>> quantitative_result("O=C1OCC=C[C@H]2OC34C=CCN(CCN5CCOCC5)C(=O)[C@H]3N(CCO)C(=O)[C@@H]4[C@@H]12 (stereo not given in full)")
-0.417
>>> quantitative_result("C=C(CCCC)/C(=C/C[C@H](OC(=O)c1ccncc1)c1ccc(OCCO)cc1)c1cc(C(=O)OC)ccc1OC")
-0.187
>>> quantitative_result("CCOC(=O)C1=CC[C@H]2C(=O)N(c3ccccc3)C(=O)[C@@H]12")
0.157

Continue with the next molecule.
Field request: composite z-score | item: "O=C(NCCN1CCOCC1)[C@@H]1c2ccccc2C(=O)N(Cc2cc(C(F)(F)F)cc(C(F)(F)F)c2)[C@H]1c1ccc(CO)cc1" -0.0856

====

- MEASUREMENT_TARGET: Fibroblast growth factor 10 (Homo sapiens) (UniProt O15520)
- Sequence (O15520 whole entry, looked up): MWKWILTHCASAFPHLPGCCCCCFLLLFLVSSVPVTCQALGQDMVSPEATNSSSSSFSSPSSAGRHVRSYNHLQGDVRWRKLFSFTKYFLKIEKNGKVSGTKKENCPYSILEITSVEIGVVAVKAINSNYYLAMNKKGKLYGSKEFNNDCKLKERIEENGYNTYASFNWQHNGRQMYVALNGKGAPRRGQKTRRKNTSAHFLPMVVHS
- EXPERIMENTAL_DETAILS: compounds binding fibroblast growth factor 10 – biochemical, small-molecule microarray, 635 nm fluorescence, primary screen (AID 1102)
- PROTOCOL_CONDITIONS: FGF10 binding, fluorescence 635 nm, higher = more signal
Classification field: enter yes for composite z-score values not below 0.6, no for values below it.

hey, is composite z-score for this one >= 0.6? CN1C(=O)C2C=CC(C(O)C=Cc3ccc([N+](=O)[O-])cc3)N(Nc3ccccc3)C2C1=O (centres undefined) yes

Check if composite z-score >= 0.6 (inclusive). Item: "COC(=O)C(CC#Cc1ccc2c(c1)[C@]1(C(=O)N2)[C@H](c2ccc(O)cc2)N2[C@H](c3ccccc3)[C@H](c3ccccc3)OC(=O)[C@H]2[C@@H]1C(=O)N1CCN(c2ncccn2)CC1)C(=O)OC" yes

Reported composite z-score at or above 0.6? NC(=O)N1C(=O)C2C(C1=O)C1C=C(CCCO)C2C(C2CC2)N1Cc1cc2c(cc1Br)OCO2 (centres undefined) no

Identify whether the reported composite z-score of the following compound is 0.6 or greater: "COC(=O)[C@@]1(Cc2ccccc2)[C@H]2c3cc(C(=O)N4CCCC4)n(Cc4ccc(O)c(OC)c4)c3C[C@H]2CN1C(=O)c1ccccc1" no

Identify whether the reported composite z-score of the following compound is 0.6 or greater: "[N-]=[N+]=Nc1ccccc1C[C@@]1(C(=O)N2CCCCC2)N=C(c2ccc(OCCCO)cc2)O[C@@H]1c1ccccc1" no

API: above_or_equal(metric=composite z-score, cutoff=0.6) for item "COc1ccc([Si](C)(C)[C@@H]2[C@@H](CCn3cc(CCO)nn3)O[C@]3(C(=O)N(Cc4cccc(N5C(=O)c6cccc7cccc5c67)c4)c4ccccc43)[C@H]2C)cc1" yes

For this compound, is measured composite z-score 0.6 or higher? "C=CC[C@]1(C(N)=O)N=C(c2ccc(OCCCO)cc2)O[C@H]1c1ccccc1" no

Is the recorded value of composite z-score equal to or greater than 0.6 for this compound? "C=C(CCCC)/C(=C/C[C@@H](OC(C)=O)c1ccccc1OCCO)c1cc(C(=O)OC)ccc1OC" no

I'd appreciate it if you could say whether "COC(=O)[C@@]1(Cc2ccc(F)cc2)[C@H]2c3cc(C(=O)N(C)C)n(Cc4ccc(C)o4)c3C[C@H]2CN1C(=O)c1ccccc1" has composite z-score at least equal to 0.6. no

Determine whether this compound has composite z-score no lower than 0.6: "CO[C@H]1O[C@H](CO)[C@@H](OC(=O)Nc2ccccc2-c2ccccc2)[C@H](OC(=O)Nc2ccccc2-c2ccccc2)[C@@H]1OC(=O)Nc1ccccc1-c1ccccc1" yes

// inclusive: composite z-score at least 0.6? input: "CCCCC(=C=CC[C@H](O)c1cccc(OCCO)c1)C[C@H](O)c1ccccn1" no

Does composite z-score meet or surpass 0.6 for "CCOC(=O)C1=C[C@@H](C(C)C)N(S(=O)(=O)c2ccc(C)cc2)[C@H]1c1ccccc1F" ? yes

Does "CCOC(=O)C[C@H]1[C@H](OC(=O)c2ccc(C(=O)c3ccccc3)cc2)[C@@H](NC(=O)c2ccccc2)c2cc(OCCCO)ccc2N1C(=O)c1ccccc1" have a reported composite z-score of at least 0.6? yes

The reported measurements were obtained from PubChem BioAssay.
